# system: NLuc::LmxCLK1 (Leishmania mexicana)
# method description: cell-based
# Type: cell-based
# condition parameters: 10 µM compound, tracer SV366, promastigotes
# Experimental: All compounds were tested at a fixed concentration of 10 µM to enable direct comparison of their target occupancy in live cells. Serially diluted probes (5 µL) were added to 85 µL of cells in culture media or 85 µL of purified protein. […] Light emissions at 460+10 nm (BRET donor) and at 610+20 nm (BRET acceptor) were sequentially recorded (integration time = 0.5 s, gain = 3600) using a luminometer (BMG LABTECH Clariostar or Biotek Synergy HT). […]
recorded endpoint: Target occupancy Run 2 (%)
State the answer as a number, implicitly in %.

// known answers, use as guide
input smiles: COc1cc(Nc2ncc(F)c(Nc3ccc4c(n3)NC(=O)C(C)(C)O4)n2)cc(OC)c1OC
recorded endpoint: Target occupancy Run 2
value units: %
reported: -5.8

input smiles: Nc1ncnc2c1c(-c1cnc3[nH]ccc3c1)nn2C1CCCC1
recorded endpoint: Target occupancy Run 2
value units: %
reported: -14.8

input smiles: O=C(NOCC1CC1)c1ccc(F)c(F)c1Nc1ccc(I)cc1Cl
recorded endpoint: Target occupancy Run 2
value units: %
reported: -19.9

input smiles: CC(C)n1nc(-c2ccc3oc(N)nc3c2)c2c(N)ncnc21
recorded endpoint: Target occupancy Run 2
value units: %
reported: 0.1

Could you now look at the following compound, please?
What is its Target occupancy Run 2 for NLuc::LmxCLK1 (Leishmania mexicana)? Entry: CC(C)(C)c1nc(-c2cccc(NS(=O)(=O)c3c(F)cccc3F)c2F)c(-c2ccnc(N)n2)s1 -7.9

---

Each item that follows carries a reported ΔTm Run 2.
# system: LmxCLK1 (Leishmania mexicana)
# Sequence (E9AMP2 1-422): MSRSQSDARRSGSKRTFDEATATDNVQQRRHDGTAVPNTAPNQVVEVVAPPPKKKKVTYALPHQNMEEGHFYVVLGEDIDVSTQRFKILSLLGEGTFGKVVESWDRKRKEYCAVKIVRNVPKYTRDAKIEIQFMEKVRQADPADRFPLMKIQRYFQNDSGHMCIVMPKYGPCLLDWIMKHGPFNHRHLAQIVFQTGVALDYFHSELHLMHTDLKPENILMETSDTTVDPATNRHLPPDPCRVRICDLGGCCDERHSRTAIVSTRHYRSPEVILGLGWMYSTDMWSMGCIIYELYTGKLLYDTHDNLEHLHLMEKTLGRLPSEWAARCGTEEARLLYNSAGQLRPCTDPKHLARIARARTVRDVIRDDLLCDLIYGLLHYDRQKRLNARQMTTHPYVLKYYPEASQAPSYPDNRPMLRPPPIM
# method description: biochemical
# Type: binding
Form rule: numeric answer, no unit written next to it.

What is its ΔTm Run 2 for LmxCLK1 (Leishmania mexicana)? Entry: Cc1nc(NC(=O)N2CCC[C@H]2C(N)=O)sc1-c1csc(C(C)(C)C)n1 -0.3

What is its ΔTm Run 2 for LmxCLK1 (Leishmania mexicana)? Entry: CC(=O)Nc1nc(C)c(-c2ccc(Cl)c(S(=O)(=O)NCCO)c2)s1 -0.1

---

Each item that follows carries a reported ΔTm Average.
# system: LmxCLK1 (Leishmania mexicana)
# method description: biochemical
# Type: binding
# condition parameters: DSF, 10 µM compound, 2 µM LmxCLK1, mean of two runs
State the answer as a number, implicitly in °C.

// known answers, use as guide
compound: CCn1c2ccccc2c2cc(Nc3ccnc(NCCCN4CCOCC4)n3)ccc21
value units: °C
ΔTm Average: 0.0
--
compound: CN1CCN(c2cccc(Nc3nc4c(-c5ccc(S(C)(=O)=O)cc5)cccn4n3)c2)CC1
value units: °C
ΔTm Average: 0.5
--
compound: Cl.Cl.NC1(c2ccc(-c3nc4ccn5c(=O)[nH]nc5c4cc3-c3ccccc3)cc2)CCC1 [MK-2206 2HCl]
value units: °C
ΔTm Average: -0.1
--
compound: COc1cc2nccc(Oc3ccc(NC(=O)C4(C(=O)Nc5ccc(F)cc5)CC4)cc3)c2cc1OC.O=C(O)C[C@H](O)C(=O)O [Cabozantinib malate (XL184)]
value units: °C
ΔTm Average: -0.1
--
compound: O=C(O)[C@]1(Cc2cccc(Nc3nccs3)n2)CC[C@@H](Oc2cccc(Cl)c2F)CC1
value units: °C
ΔTm Average: -0.1

Which ΔTm Average value is on record for Cc1[nH]c(/C=C2\C(=O)Nc3ccccc32)c(C)c1CCC(=O)O [TSU-68 (SU6668)] ? 0.0

Which ΔTm Average value is on record for CC(C)(C)c1cc(C=C(C#N)C#N)cc(C(C)(C)C)c1O ? -0.3

Which ΔTm Average value is on record for COc1cc2nccc(Oc3ccc(NC(=O)C4(C(=O)Nc5ccc(F)cc5)CC4)cc3)c2cc1OC [Cabozantinib (XL184)] ? 0.0

---

# system: LmxCLK1 (Leishmania mexicana)
# method description: biochemical
# Type: binding
# condition parameters: DSF, 10 µM compound, 2 µM LmxCLK1, Run 1
Values of ΔTm Run 1 strictly less than 0 °C map to yes (1), and values of at least 0 °C map to no (0).

Confirm or reject: ΔTm Run 1 of CC(C)(C)c1cc(C=C(C#N)C#N)cc(C(C)(C)C)c1O [Tyrphostin 9] lies strictly below 0 °C yes (1)

Confirm or reject: ΔTm Run 1 of O=C(NCc1cccc(O)c1)Nc1nc(-c2ccncc2)cs1 [RKI-1447] lies strictly below 0 °C yes (1)

Confirm or reject: ΔTm Run 1 of Cc1cc(F)c(Nc2ncnc3cc(OCc4ccccc4)ccc23)cc1O.Cl [ZM 323881 HCl] lies strictly below 0 °C no (0)

Confirm or reject: ΔTm Run 1 of Cc1ccc(NC(=O)c2cccc(N(C)C)c2)cc1NC(=O)c1ccc(O)cc1 [ZM 336372] lies strictly below 0 °C yes (1)

Confirm or reject: ΔTm Run 1 of O=C(c1cccc(Cl)c1F)N1CCN(Cc2cccc(Nc3nccs3)n2)CC1 [MK-8745] lies strictly below 0 °C no (0)

Confirm or reject: ΔTm Run 1 of CC(C)CCN1c2nc(Nc3cc(F)c(O)c(F)c3)ncc2N(C)C(=O)C1C (centres unmarked) [BI-D1870] lies strictly below 0 °C no (0)

Confirm or reject: ΔTm Run 1 of Cc1cc(N2CCOCC2)cc2[nH]c(-c3c(NC[C@@H](O)c4cccc(Cl)c4)cc[nH]c3=O)nc12 [BMS-536924] lies strictly below 0 °C no (0)

---

# system: LmxCLK1 (Leishmania mexicana)
# method description: biochemical
# Assay type: binding
# condition parameters: DSF, 10 µM compound, 2 µM LmxCLK1, Run 1; read-out: ΔTm Run 1
recorded endpoint: ΔTm at 10 µM (°C)
State the answer as a number, implicitly in °C.

// known answers, use as guide
compound: CC(C)(C)NS(=O)(=O)c1cncc(-c2cc(F)c3nc(N)nn3c2)c1 [CZC24832]
ΔTm at 10 µM [°C]: 0
//
compound: COc1cc(N2CCC(N3CCN(C)CC3)CC2)ccc1Nc1ncc(Cl)c(Nc2ccccc2P(C)(C)=O)n1 [AP26113]
ΔTm at 10 µM [°C]: 1.1
//
compound: CC(C)CC(=O)Nc1[nH]nc2c1CN(C(=O)C1CCN(C)CC1)C2(C)C [PHA-793887]
ΔTm at 10 µM [°C]: 0.1
//
compound: C[C@H]1[C@H](C)CC[C@]2(C(=O)O)CC[C@]3(C)C(=CC[C@@H]4[C@@]5(C)C[C@@H](O)[C@H](O)[C@@](C)(CO)[C@@H]5CC[C@]43C)[C@H]12 [Asiatic Acid]
ΔTm at 10 µM [°C]: 0.2

Could you now look at the following compound, please?
Which ΔTm at 10 µM value is on record for CCC(=O)Nc1cccc(Oc2nc(Nc3ccc(N4CCN(C)CC4)cc3OC)ncc2Cl)c1 [WZ4003] ? 0.1

---

# system: LmxCLK1 (Leishmania mexicana, UniProt E9AMP2)
# method description: biochemical
# Format: binding
# condition parameters: DSF, 10 µM compound, 2 µM LmxCLK1, mean of two runs; read-out: ΔTm Average
Each item that follows carries a reported ΔTm at 10 µM.
Value and unit, in that order.

Which ΔTm at 10 µM value is on record for CCCCOc1c(C(=O)c2c(F)cc(C)cc2F)c[nH]c2nncc1-2 [BMS-265246] ? -0.2 °C

Which ΔTm at 10 µM value is on record for Cc1ccc(C(=O)Nc2ccc(CN3CCN(C)CC3)c(C(F)(F)F)c2)cc1C#Cc1cnc2[nH]ncc2c1 [GZD824] ? 17.4 °C

Which ΔTm at 10 µM value is on record for O=c1ncn2nc(Sc3ccc(F)cc3F)ccc2c1-c1c(Cl)cccc1Cl [VX-745] ? 0.3 °C

---

# system: LmxCLK1 (Leishmania mexicana, UniProt E9AMP2)
# Sequence (E9AMP2 1-422): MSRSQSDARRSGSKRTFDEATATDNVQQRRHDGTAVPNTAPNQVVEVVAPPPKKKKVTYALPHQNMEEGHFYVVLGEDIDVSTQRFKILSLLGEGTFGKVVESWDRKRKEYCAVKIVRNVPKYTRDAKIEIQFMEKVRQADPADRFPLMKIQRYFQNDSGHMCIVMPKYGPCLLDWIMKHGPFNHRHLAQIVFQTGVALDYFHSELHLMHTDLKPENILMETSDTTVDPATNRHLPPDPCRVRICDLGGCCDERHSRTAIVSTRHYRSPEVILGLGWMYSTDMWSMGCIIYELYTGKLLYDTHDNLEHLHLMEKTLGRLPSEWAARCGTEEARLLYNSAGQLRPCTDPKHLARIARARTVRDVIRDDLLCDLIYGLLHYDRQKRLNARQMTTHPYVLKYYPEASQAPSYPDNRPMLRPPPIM
# method description: HTRF (TR-FRET) enzymatic inhibition assay
# Type: biochemical
# condition parameters: pre-incubation 30 min; read-out: Time-dependent IC50
recorded endpoint: IC50 (nM)
State the answer as a number, implicitly in nM.

What is its IC50 for LmxCLK1 (Leishmania mexicana, UniProt E9AMP2)? Entry: C=CC(=O)Nc1cccc(Sc2nc(Nc3ccc(N4CCN(C)CC4)cc3)ncc2Cl)c1 759
